- Test system: SF-295 CNS
- PROTOCOL NOTES: NCI tumour cell line growth inhibition, 48 h
REPORTED METRIC: TGI

Below, 5 compounds whose answers are already recorded.
[[record]]
compound = "CN(C)[C@@H]1C(=O)C(C(=O)NCNc2nc3n[nH]nc3c(=O)[nH]2)=C(O)[C@@]2(O)C(=O)C3=C(O)c4c(O)cccc4[C@@](C)(O)[C@H]3C[C@@H]12"
test_value = "> 100 µM"

[[record]]
compound = "COc1cc(S(=O)(=O)Nc2ccc(-c3csc(N4C(=O)C(C)SC4c4cccs4)n3)cc2)ccc1Cl (centres undefined)"
test_value = "> 100 µM"

[[record]]
compound = "O=c1nc2sc3ccccc3c(=O)n2[nH]1"
test_value = "> 100 µM"

[[record]]
compound = "C[C@@H](Nc1cc(F)cc(F)c1)c1cc(C(=O)N(C)C)cc2c(=O)cc(N3CCOCC3)oc12"
test_value = "59.9 µM"

[[record]]
compound = "C=CCn1c2ccccc2c2c3c(c4c5ccccc5n(CC=C)c4c21)C(=O)N(O)C3=O"
test_value = "8.62 µM"


For the 4 compounds below, give their TGI values.
1. C#C[C@@]1(O)[C@@H](CO)O[C@@H](n2cc(Br)c3c(Cl)ccnc32)[C@@H]1O
2. C=C1c2nc3ccccc3n2C=C(c2cccc(Cl)c2)N1Cc1ccc(OC)cc1
3. O=C1Nc2ccc(Br)cc2/C1=N/S(=O)(=O)O
4. ICC1CCCO1 (centres undefined)

["> 100 µM", "6.91 µM", "> 100 µM", "> 100 µM"]

* * *

- Tested on: SR leukemia
- PROTOCOL NOTES: NCI tumour cell line growth inhibition, 48 h
Please provide measured TGI for the entries that follow.

Below, 3 molecules whose answers are already recorded.
[[record]]
molecule = "CN1CCC2(CC1)N=C(SCC(=O)Nc1cnc3ccccc3c1)C(c1ccc(Br)cc1)=N2"
system = "SR leukemia"
test_value = "5.29 µM"

[[record]]
molecule = "CCN1CCN(c2nc(C)cc(NCc3cc(Nc4ccnc5cc(Cl)ccc45)ccc3F)n2)CC1"
system = "SR leukemia"
test_value = "5.89 µM"

[[record]]
molecule = "CC(=O)[O-].CC(=O)[O-].O=C(N/N=C/c1cc(Cl)cc(Cl)c1[OH2+])c1ccncc1.[Mn+2]"
system = "SR leukemia"
test_value = "4.4 µM"


For the 6 molecules below, give their TGI values.
1. Cc1ccc(/C=N/NC(=O)c2ccccc2Oc2ccccc2)o1
2. Cc1ccc(C[As+](c2ccccc2)(c2ccccc2)c2ccccc2)cc1
3. Cc1sc(C(=O)c2cncnc2N[C@@H]2C[C@H](COS(N)(=O)=O)[C@@H](O)C2)cc1[C@@H]1NCCc2ccc(Cl)cc21
4. Cc1ccccc1NC(=O)Cc1nc2ccccc2s1
5. CCCCN=NNc1cn(C2OC(CO)C(O)C2O)c(=O)[nH]c1=O (stereo unspecified)
6. CSC1=NN(C(C)=O)C(C(OC(C)=O)C(OC(C)=O)C(OC(C)=O)C(COC(C)=O)OC(C)=O)S1 (stereo unspecified)

> 100 µM
6.07 µM
26.3 µM
63 µM
> 100 µM
> 100 µM

For the 2 molecules below, give their TGI values.
1. CCc1nc(C)cn1C(=O)OCc1nc2nc(Cl)nc(N3CCOCC3)c2[nH]1
2. CCOc1cc(-c2nncn2C)ccc1Nc1ncc2cc(C)nc(NCC(C)(C)C)c2n1

["> 100 µM", "> 75.8 µM"]

For the 6 molecules below, give their TGI values.
1. Cn1c(=O)c2ccccc2[n+]2c(-c3cccc([N+](=O)[O-])c3)csc12
2. N#C/C(=C\c1cc(O)c(O)c(O)c1)C(N)=O
3. C/C(=N\NC(=O)c1ccncc1)c1sc(-n2nc(-c3ccccc3)cc2-c2ccccc2)nc1C
4. Cc1ccc(S(=O)(=O)OCOS(=O)(=O)c2ccc(C)cc2)cc1
5. COC(=O)c1c[nH]c2cc(OC(C)C)c(OC(C)C)cc2c1=O
6. CCCCC(=O)/C=c1/cc(C)[nH]c2cccc3cnn1c32

71.5 µM
> 92.3 µM
> 31.6 µM
> 100 µM
> 100 µM
> 100 µM

For the 3 molecules below, give their TGI values.
1. Nc1ccccc1C#C/C=C\C#Cc1ccccc1C#CCO
2. C=CCn1c2ccccc2c2c3c(c4c5ccccc5n(CC=C)c4c21)C(=O)N(O)C3=O
3. Cc1ccc(Sc2ccccc2C23OC(C)(C4C(=O)N(c5ccccc5)C(=O)C42)N(C)C3=O)cc1 (stereo unspecified)

1. > 50 µM
2. 5.67 µM
3. > 100 µM

For the 4 molecules below, give their TGI values.
1. CCN(CC)C1Oc2cc3c(cc2C(c2cc(OC)c(O)c(OC)c2)C1C)OCO3 (stereo unspecified)
2. COc1ccccc1-n1nnc2c(N)nc(N)nc21
3. Nc1[nH]nc2nc(-c3cc(Cl)ccc3Cl)cc(-c3ccc(F)cc3)c12
4. O=C(/C=C/c1ccccc1)c1cccc2ccccc12

["32.7 µM", "> 100 µM", "69.2 µM", "3.75 µM"]

For the 4 molecules below, give their TGI values.
1. O=C(/C=C/c1ccc(Cl)c(Cl)c1)c1ccccc1Cl
2. CC(=O)Nc1cc(Cl)cc(Cl)c1O
3. CCOC(=O)c1ncn(CCc2ccc(Cl)cc2)c1C
4. C=C1C(=O)O[C@H]2[C@H]1CC/C(COC(=O)c1cccnc1N)=C\CC[C@@]1(C)O[C@@H]21

36.7 µM
> 100 µM
> 100 µM
10.4 µM

For the 3 molecules below, give their TGI values.
1. CSc1c(C#N)c(=O)n(N)c2c1c(C)nn2-c1ccccc1
2. CC(C)(C)OC(=O)N(O)[C@@H]1CC[C@H](n2cnc3c(N)ncnc32)C1
3. O=C(NC1CC1)c1c(O)[nH]c(=S)[nH]c1=O

["71.8 µM", "> 100 µM", "> 100 µM"]

For the 5 molecules below, give their TGI values.
1. Cc1ccc(N(C=O)c2c([N+](=O)[O-])cc([N+](=O)[O-])c3c2=[N+]([O-])CN=3)cc1
2. COCn1cc(C2=C(C)C(=O)C(C)=C(C)C2=O)cn1
3. CC(=O)OCC1OC(n2c(C)c(C(C)=O)c(-c3ccco3)c(C#N)c2=S)C(OC(C)=O)C(OC(C)=O)C1OC(C)=O (stereo unspecified)
4. COc1ccc(CN2C(=O)[C@@H]3Cc4c(OC)c(C)c(OC)c(OC)c4[C@H](/C2=C\c2cc(OC)c(OC)c(C)c2OC)N3C(=O)OC(C)C)cc1
5. C=CCCCCCCCCCP(=O)(c1ccccc1)c1ccc2c(c1)OCCOCCOCCOCCO2 (stereo unspecified)

["> 100 µM", "65.9 µM", "> 100 µM", "> 100 µM", "22.8 µM"]

* * *

Please provide measured TGI for the entries that follow.
- System: HCT-116 colon
- PROTOCOL NOTES: NCI tumour cell line growth inhibition, 48 h

[[record]]
compound = "CCOC(=O)c1ncn(CCc2ccc(Cl)cc2)c1C"
test_value = "> 100 µM"


For the 5 compounds below, give their TGI values.
1. COC(=O)[C@@H]1C[C@@H](O)CN1C(=O)c1ccc([N+](=O)[O-])cc1[N+](=O)[O-]
2. Brc1ccccc2cc(-c3ccccc3)nc1-2
3. CCCCCCCCOC(=O)C12Oc3ccc(-c4ccc5c(c4O)C(O)=C4C(=O)CC(C)C(O)C4(C(=O)OCCCCCCCC)O5)c(O)c3C(O)=C1C(=O)CC(C)C2O (stereo unspecified)
4. CCOc1cc(-c2nncn2C)ccc1Nc1ncc2cc(C)nc(NCC(C)(C)C)c2n1
5. COC(=O)/C=C/CCC#Cc1ccccc1C#CCC/C=C/C(=O)OC

> 100 µM
10.5 µM
> 100 µM
> 100 µM
> 100 µM

* * *

Please provide measured TGI for the entries that follow.
- Test system: DU-145 prostate
- PROTOCOL NOTES: NCI tumour cell line growth inhibition, 48 h

[[record]]
compound = "O=C1Nc2ccc(Br)cc2/C1=N/S(=O)(=O)O"
test_value = "> 100 µM"

[[record]]
compound = "CCCCC(=O)/C=c1/cc(C)[nH]c2cccc3cnn1c32"
test_value = "> 100 µM"

[[record]]
compound = "C/C=C(\\N=C=S)C(=O)OC1C(COC(C)=O)OC([C@]2(O)CC(=O)C(=N)C(C(=O)O)=C2O)C(O)C1OC1CC(OC)C(O)([C@@H](C)OC(=O)[C@@H](C)CC)C(C)O1 (stereo not given in full)"
test_value = "39.2 µM"


For the 3 compounds below, give their TGI values.
1. C=C1c2nc3ccccc3n2C=C(c2cccc(Cl)c2)N1Cc1ccc(OC)cc1
2. C=C(C)C1CC[C@@](C)(O)[C@H](C#N)C1 (stereo not given in full)
3. NS(=O)(=O)c1ccc(N=Nc2ccc[nH]c2=O)cc1

1: > 53.5 µM; 2: > 100 µM; 3: > 100 µM

For the 4 compounds below, give their TGI values.
1. CCN1CCN(c2nc(C)cc(NCc3cc(Nc4ccnc5cc(Cl)ccc45)ccc3F)n2)CC1
2. CCO/C(O)=C(/C(=N)N1CCOCC1)C(=O)NC(C)C
3. CCOC(=O)c1ncn(CCc2ccc(Cl)cc2)c1C
4. C=C1CN=C(Nc2ccc(Cl)cc2)S1

["12.1 µM", "> 100 µM", "> 100 µM", "> 100 µM"]
